assay: Plasma pharmacokinetics after oral multi-dose anatabine polacrilex; assay type: in vivo, Sprague-Dawley rats; settings: male, Sprague-Dawley, rat, plasma, oral, 0.2 mg/kg, Avg. Conc. of anatabine in plasma, dose group 0.2, male, 270 min
endpointName: concentration at 270 min (ng/mL)
The figure you give is taken to be in ng/mL; do not add the unit.

Item C1=CCC(c2cccnc2)NC1 (racemic) [Anatabine, 1,2,3,6-tetrahydro-[2,3′]bipyridinyl] has what recorded concentration at 270 min? 26

---

assay: Plasma toxicokinetics after single i.v. bolus; type: in vivo, Sprague-Dawley rats; settings: both sexes, Sprague-Dawley, rat, plasma, intravenous, 0.75 mg/kg, Anatabine 0.75 mg/kg; male and female; 6 hr (1st 6 hr line), n=12; read-out: Avg. Conc. rat plasma, combined male and female
endpointName: concentration at 6 h (ng/mL)
Reply numerically in ng/mL, unit not repeated.

Record request: concentration at 6 h value, item C1=CCC(c2cccnc2)NC1 (racemic) [Anatabine, 1,2,3,6-tetrahydro-[2,3′]bipyridinyl] 19.3
